# Measurement notes: NCI Yeast Anticancer Drug Screen. Data for the mec2-1 strain (AID 157)
# Condition description: S. cerevisiae mec2-1 strain, hits give high values; at 50.0 µM unless noted
Compounds without any hit were thinned out: in the full panel of roughly 79,000, 15% have a hit. Calls of active or inactive are those of the source. Rule as the data show it: active = growth inhibition above about 70%; inactive = the rest.

Compound	growth inhibition
O=C(CC(=O)N1N=C(n2ccc3ccccc32)CC1c1ccccc1)Nc1ccc(Cl)cc1 (centres undefined)	-7.7% (inactive)
CC(C)N(C(=O)c1ccccc1O)C(C)C	-7.65% (inactive)
CC(C)N=C(N)N=C(N)N	13.5% (inactive)
CC(=O)c1cccc(OC(=O)Nc2ccccc2)c1	-10.2% (inactive)
CC1(C)COC(c2ccc3c(c2)OCO3)N1 (centres undefined)	-8.45% (inactive)
CCCCCC1CC(C(C)=O)CN1c1ccc(F)cc1 (centres undefined)	8.4% (inactive)
Cc1nnsc1C(=O)NCc1c(F)cccc1Cl	15.6% (inactive)
Nc1ncnc2c1ncn2C1OC(CO)C(NC(=O)C(N)Cc2ccccc2)C1O (centres undefined)	-4.7% (inactive)
C=CCCC(CCC=C)(C(=O)O)C(=O)O	-9.7% (inactive)
CCOC(=O)c1ccc(NC(=S)NC(=O)C(C)Oc2ccccc2)cc1 (centres undefined)	40% (inactive)
FC(F)(F)c1ccc2ccc3ccc(Cl)cc3c2c1	-24% (inactive)
COC1CCC(OS(C)(=O)=O)C(C)O1 (centres undefined)	-45.9% (inactive)
CCN(CC)CCOC(=O)c1ccc(NC(=O)OCCOCCOC(=O)Nc2ccc(C(=O)OCCN(CC)CC)cc2)cc1	-4.3% (inactive)
Cc1ccc(O)cc1N(C)C	-3.95% (inactive)
O=C(O)CCCCCCCC(=O)O	-0.45% (inactive)
COc1c(OC(C)=O)c(OC(C)=O)cc2c1-c1ccc(SC)c(=O)cc1C(NC(C)=O)CC2 (centres undefined)	3.5% (inactive)
Cc1ccc2nc(-c3ccc(F)cc3)cc(C(=O)O)c2c1	2.05% (inactive)
O=c1oc2c3ccc4ccccc4c3n(CCN3CCOCC3)c2c2ccccc12	-3.6% (inactive)
CC(NC(=O)CNC(=O)OCc1ccccc1)C(=O)O (centres undefined)	9.35% (inactive)
CCCCCOC(=O)C#CC(=O)OCCCCC	99.8% (active)
O=C1CN(c2cccc(C(F)(F)F)c2)C(=O)CN1/N=C/c1cccnc1	-5.2% (inactive)
CCOC(=O)c1nc2ccccc2c(=O)[nH]1	-5% (inactive)
Cc1ccc(C2=Nc3cc(C)c(Cl)cc3S(=O)(=O)NN2)cc1	-24.9% (inactive)
CCCCCCCCCCCCCCCC(=O)c1ccccc1	27.2% (inactive)
Cc1ccc(S(=O)(=O)N/N=C(/c2nc3ccc([N+](=O)[O-])cc3[nH]c2=O)C(O)c2ccc(C(O)/C(=N\NS(=O)(=O)c3ccc(C)cc3)c3nc4ccc([N+](=O)[O-])cc4[nH]c3=O)cc2)cc1 (centres undefined)	-27.6% (inactive)
Nc1ncnc(Nc2ccc(Cl)cc2Cl)n1	-11.7% (inactive)
COc1ccc(C2c3cc(OC)c(OC)cc3C(Cc3ccc([N+](=O)[O-])cc3)C2c2ccc([N+](=O)[O-])cc2)cc1OC (centres undefined)	19.8% (inactive)
Cc1ccc([N+](=O)[O-])cc1NS(=O)(=O)c1cc(Cl)c(Cl)cc1Cl	36.6% (inactive)
Cc1cccc(NC(=O)Nc2ccccc2F)n1	5.65% (inactive)
Cc1cc(=O)oc2nn(CCO)c(C)c12	-17.6% (inactive)
CCOC(OCC)N1C(=O)C2(C(OCC)OCC)CC3C(OC(=O)N3N)c3cccc1c32 (centres undefined)	4.15% (inactive)
C#CCOC(=O)c1ccccc1	-5.15% (inactive)
CCCc1cc(Cl)ccc1OCC(=O)O	18.9% (inactive)
Brc1ccccc1C#Cc1ccccc1Br	-4.6% (inactive)
CC(=O)OC1CCC2(C)C3CCC4(C)C(C(C)CCCC(C)C)CCC4C3C3CC32C1 (centres undefined)	-21.8% (inactive)
COc1cc2c(cc1OCc1ccccc1)C(Cc1cc(Br)sc1Br)=NCC2	58.5% (inactive)
CCOC=Nc1ccc(-n2cnc3c(Cl)ncnc32)cc1C	-4.45% (inactive)
S=c1[nH]nc(-c2n[nH]c3ccccc23)o1	3.6% (inactive)
NCCCCCN	-1.05% (inactive)
CCC(=O)OC(CCC1CCCO1)CCC1CCCO1 (centres undefined)	12.2% (inactive)
COC1=C2C[C@H](C)C[C@H](OC)[C@H](O)[C@@H](C)/C=C(\C)[C@H](OC(N)=O)[C@H](OC)/C=C\C=C(/C)C(=O)NC(=C(/C=N/N3CCN(C)CC3)C1=O)C2=O	0.05% (inactive)
Nc1ccc(NC(=O)Nc2ccccc2)cc1	-19.2% (inactive)
C[C@]12CCC(=O)C=C1CC[C@H]1[C@@H]3CC[C@](O)(C(=O)CO)[C@@]3(C)CC(=O)[C@@]12SC(N)=O	6.55% (inactive)
CN1C(=O)N(C)C2(O)c3ccccc3C(=O)C12O (centres undefined)	2.9% (inactive)

---

# Measurement notes: NCI Yeast Anticancer Drug Screen. Data for the rad50 strain (AID 155);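 also: 0% = growth of vehicle-only cultures of the same strain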
# Condition description: S. cerevisiae rad50 strain growth inhibition, hits give high values; at 50.0 µM unless noted
# Procedure: Growth inhibition of yeast strains with defined genetic alterations is measured as a screen for potential anti-cancer activity. Selected strains with alterations in DNA damage repair or cell cycle control were exposed to compounds and growth inhibition was measured relative to vehicle treated controls. The strain used in this assay is rad50
The panel holds about 79,000 compounds, 15% with a hit somewhere; the sample as a whole holds those more often. The source made the active and inactive calls. No stated cut-off is given here; in the data, active means growth inhibition above about 70%; inactive means the rest.
Each item that follows carries a reported growth inhibition.
Measured parameter: growth inhibition

> print(dat)
                                    compound  measured.parameter     value.measured
 1                             N#CCN1CCCCCC1   growth inhibition  -14.8% (inactive)
 2                     CCCCCCCCCCCCNCCC(=O)O   growth inhibition     25% (inactive)
 3     O=C(O)c1ccc(P(=O)(O)O)cc1[N+](=O)[O-]   growth inhibition   26.4% (inactive)
 4  O=C1CC2(C(=O)O)CC3CC2C(O1)C3I (stereo not given)   growth inhibition   13.7% (inactive)
 5                       CCOC(=O)c1cn[nH]c1C   growth inhibition   1.35% (inactive)
 6  N#C/C(=C\C1CCCCC1Cl)C1CCC([N+](=O)[O-])CC1 (stereo not given)   growth inhibition   12.6% (inactive)
 7  COc1cc2c(cc1OC)NC(=O)NC(Cc1ccc3c(c1)OCO3)CC2 (stereo not given)   growth inhibition   20.6% (inactive)
 8  CC(=O)OCC1OC(n2c(=O)[nH]c(=O)c3n[nH]nc32)C(OC(C)=O)C(OC(C)=O)C1OC(C)=O (stereo not given)   growth inhibition   -4.2% (inactive)
 9  COC(=O)NC1C(OC(C)=O)C(OC(C)=O)C(COC(C)=O)OC1n1ccc(NC(C)=O)nc1=O (stereo not given)   growth inhibition   8.65% (inactive)
10  Cc1cc2nc3c(=O)[nH]c(=O)nc-3n(C/C=N/NC(N)=S)c2cc1C   growth inhibition   5.75% (inactive)
11  O=C(CC1(O)C(=O)Nc2ccc(Br)cc21)c1ccc2c(c1)OCO2 (stereo not given)   growth inhibition    2.7% (inactive)
12  Cc1nc2c3c(ccc2[nH]c1=O)C(=O)c1ccccc1C3=O   growth inhibition   19.4% (inactive)
13  O=C1c2c(Br)sc(Br)c2C(NC(=O)C(F)(F)F)C1O (stereo not given)   growth inhibition   10.3% (inactive)
14            CCOC(=O)N1CCN(C(=O)CC(C)=O)CC1   growth inhibition   2.35% (inactive)
15                       COCCCCCCCCCCCC(=O)O   growth inhibition  -23.4% (inactive)

---

# Measurement notes: NCI Yeast Anticancer Drug Screen. Data for the bub3 strain (AID 167)
# Condition description: S. cerevisiae bub3 mutant strain, hits give high values; at 50.0 µM unless noted
The panel holds about 79,000 compounds, 15% with a hit somewhere; the sample as a whole holds those more often.
Measured parameter: growth inhibition (%)

> print(dat)
                                   compound  units.label  value.measured
1       CCOC(=O)c1c[nH]c2c(Cl)c(Cl)ccc2c1=O            %            9.25
2  N[N+]#COC1C(C(=O)NN)C1C(=O)NN (stereo not given)            %            7.05
3                O=C(Cc1csc2ccccc12)NCC1CC1            %              11
4  Cc1[nH]n(-c2ccc(Cl)cc2)c(=O)c1N=Nc1cccc(C(F)(F)F)c1            %           -2.05
5  S=c1c2[nH]cnc2ncn1CCSC1=NC=NC2=NC=NC21 (stereo not given)            %             -55
